Target or test system: CRTh2 receptor (Homo sapiens)
Sequence (Q9Y5Y4 whole entry): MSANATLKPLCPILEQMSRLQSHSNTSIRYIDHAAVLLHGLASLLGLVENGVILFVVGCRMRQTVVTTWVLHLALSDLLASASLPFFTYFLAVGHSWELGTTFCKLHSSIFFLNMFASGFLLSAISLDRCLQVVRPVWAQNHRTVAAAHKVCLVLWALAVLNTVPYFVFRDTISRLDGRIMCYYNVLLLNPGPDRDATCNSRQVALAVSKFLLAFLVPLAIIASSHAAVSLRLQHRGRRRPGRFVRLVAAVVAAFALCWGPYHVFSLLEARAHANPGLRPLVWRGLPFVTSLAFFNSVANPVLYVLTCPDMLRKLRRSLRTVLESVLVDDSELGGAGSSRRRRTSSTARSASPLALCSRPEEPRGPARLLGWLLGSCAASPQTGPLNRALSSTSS
Hi there, I'd appreciate the recorded IC50 for every entry that follows.
Answers are plain numbers, in nM.

Cc1c(Cc2ccc(S(=O)(=O)Cc3ccccc3)cc2)c2c(n1CC(=O)O)CCNC2=O; 2.9
COc1ccc(S(=O)(=O)c2ccc(F)cc2)c(Cc2c3c(n(CC(=O)O)c2C)CC(C)(C)NC3=O)c1; 4.8
Cc1c(Cc2ccccc2S(=O)(=O)c2cccc(F)c2)c2c(n1CC(=O)O)CCNC2=O; 6.2

Below are some compounds; for each one, tell me its IC50.
1. Cc1c(Cc2ccccc2S(=O)(=O)c2ccccc2)c2c(n1CC(=O)O)CCN(C(C)C(F)(F)F)C2=O (stereo not shown)
2. Cc1c(Cc2ccccc2S(=O)(=O)C2CCCCC2)c2c(n1CC(=O)O)CCNC2=O
3. Cc1c(Cc2ccccc2S(=O)(=O)c2cccc(Cl)c2)c2c(n1CC(=O)O)CCNC2=O

Output:
[5.8, 27, 4]

Input: # lookup: IC50 of Cc1c(Cc2cc(F)ccc2S(=O)(=O)c2ccccc2)c2c(n1CC(=O)O)CCNC2=O
Output: 3.7
